assay: Restrictive medium S. cerevisiae growth inhibition, OD615, pilot screen of yeast lifespan reduction project, restrictive growth control (AID 706); settings: OD615, 48 h, at 10 µM, hits give high values;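 also: modified DeaD lifespan yeast strain shifted to restrictive glucose medium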
endpointLabel: growth inhibition (%)

[[record]]
compound = "COc1ccccc1C1NC(=O)NC(C)=C1C(=O)OC1CCCCC1 (stereo unspecified)"
outputunit = "%"
reportedresult = -6.71

[[record]]
compound = "Cc1ccc(S(=O)(=O)c2nc(S(C)(=O)=O)sc2N(C)C)cc1"
outputunit = "%"
reportedresult = -4.42

[[record]]
compound = "Cc1ccc2oc(=O)c3cc(C(=O)N4CCN(C(=O)c5ccco5)CC4)sc3c2c1"
outputunit = "%"
reportedresult = -1.79

[[record]]
compound = "Cc1cc(NC(=O)C2CC(c3ccc(F)cc3)=NO2)n(-c2ccccc2)n1 (stereo unspecified)"
outputunit = "%"
reportedresult = 2.08

[[record]]
compound = "Cc1csc(=NC(=O)c2ccccc2)n1Cc1ccco1"
outputunit = "%"
reportedresult = -36

[[record]]
compound = "Cc1ccccc1CNc1nc(N)n(-c2ccccc2)n1"
outputunit = "%"
reportedresult = 2.71

[[record]]
compound = "COc1ccc(OC)c(C2CC(=O)c3c([nH]c(C(=O)OCC4CCCO4)c3C)C2)c1 (stereo unspecified)"
outputunit = "%"
reportedresult = -10.4

[[record]]
compound = "Cc1ccc(C(=O)N2CCN(C3CCCCC3)CC2)s1"
outputunit = "%"
reportedresult = -0.76

[[record]]
compound = "CCOC(=O)c1ccccc1NC(=O)Cn1cnc2c(nnn2-c2ccc(C)cc2)c1=O"
outputunit = "%"
reportedresult = 4.12

[[record]]
compound = "O=C(Nc1nccs1)c1cccc(S(=O)(=O)N2CCOCC2)c1"
outputunit = "%"
reportedresult = -11.8

[[record]]
compound = "COc1cc(-c2nc3cnccn3c2Nc2ccccc2)ccc1O"
outputunit = "%"
reportedresult = 0.535

[[record]]
compound = "COc1ccc(C(=O)N2CCN(C(=O)c3ccco3)CC2)cc1"
outputunit = "%"
reportedresult = 6.93

[[record]]
compound = "CCOCCn1c(COc2ccccc2)nc2ccccc21"
outputunit = "%"
reportedresult = 1.93

[[record]]
compound = "O=C(Cn1cc2c(n1)CCCC2)NCc1cccc(Cl)c1"
outputunit = "%"
reportedresult = 5.37

[[record]]
compound = "CCC(C)Sc1nc2c([nH]c3ccccc32)c(=O)n1C (stereo unspecified)"
outputunit = "%"
reportedresult = -15.8

[[record]]
compound = "COc1ccc(C)cc1S(=O)(=O)N1CCN(S(=O)(=O)c2cc(C)ccc2OC)C(C)C1 (stereo unspecified)"
outputunit = "%"
reportedresult = -8.42

[[record]]
compound = "CC1(C)CC(=O)C=C(NC2CC(C)(C)NC(C)(C)C2)C1"
outputunit = "%"
reportedresult = -15.2

[[record]]
compound = "Cc1cc(NC(=O)COn2nnc3ccc(Cl)cc32)no1"
outputunit = "%"
reportedresult = 1.51

[[record]]
compound = "CCn1nnc(NC(=O)c2ccc(C(C)(C)C)cc2)n1"
outputunit = "%"
reportedresult = -6.88

[[record]]
compound = "CC(C)=CC1C(C(=O)Nc2ccc(Br)cn2)C1(C)C (stereo unspecified)"
outputunit = "%"
reportedresult = -19.1

[[record]]
compound = "COc1cc(/C=N/n2cnnc2)ccc1OCCOc1ccccc1"
outputunit = "%"
reportedresult = 1.02

[[record]]
compound = "COC(=O)c1cc(=O)nc2scc(C)n12"
outputunit = "%"
reportedresult = -18.9

[[record]]
compound = "CC(N=C1NS(=O)(=O)c2ccccc21)c1ccccc1 (stereo unspecified)"
outputunit = "%"
reportedresult = 1.27

[[record]]
compound = "Cc1ccccc1NC(=O)CC1SC(=NC2CCCCC2)NC1=O (stereo unspecified)"
outputunit = "%"
reportedresult = -12

[[record]]
compound = "Cc1c(NC(=O)CCCCCN2C(=O)C3C4C=CC(C4)C3C2=O)c(=O)n(-c2ccccc2)n1C (stereo unspecified)"
outputunit = "%"
reportedresult = 5.79

[[record]]
compound = "Cc1ccc(C)c(N2CCN(C(=O)c3cc4ccccc4oc3=O)CC2)c1"
outputunit = "%"
reportedresult = -15.9

[[record]]
compound = "CNC(=O)C1CC(=O)N(c2ccc(C)cc2)C1 (stereo unspecified)"
outputunit = "%"
reportedresult = -11.4

[[record]]
compound = "COc1cccc(C2(O)CCN(C(=O)c3cccs3)CC2)c1"
outputunit = "%"
reportedresult = 6.06

[[record]]
compound = "O=C(Nc1nccs1)C1CCN(S(=O)(=O)c2cccnc2)CC1"
outputunit = "%"
reportedresult = 3.12

[[record]]
compound = "Cn1c(=O)oc2cc(S(=O)(=O)NCc3ccccn3)ccc21"
outputunit = "%"
reportedresult = -20.2

[[record]]
compound = "O=C(C1CCN(S(=O)(=O)c2cccc3cccnc23)CC1)N1CC=C(c2ccccc2)CC1"
outputunit = "%"
reportedresult = 9.98

